Provide the recorded pKd for the entries that follow.
Target: T1, EsCas13d, nuclease-dead (Eubacterium siraeum, UniProt B0MS50, R295A;H300A;R849A;H854A)
T1 sequence: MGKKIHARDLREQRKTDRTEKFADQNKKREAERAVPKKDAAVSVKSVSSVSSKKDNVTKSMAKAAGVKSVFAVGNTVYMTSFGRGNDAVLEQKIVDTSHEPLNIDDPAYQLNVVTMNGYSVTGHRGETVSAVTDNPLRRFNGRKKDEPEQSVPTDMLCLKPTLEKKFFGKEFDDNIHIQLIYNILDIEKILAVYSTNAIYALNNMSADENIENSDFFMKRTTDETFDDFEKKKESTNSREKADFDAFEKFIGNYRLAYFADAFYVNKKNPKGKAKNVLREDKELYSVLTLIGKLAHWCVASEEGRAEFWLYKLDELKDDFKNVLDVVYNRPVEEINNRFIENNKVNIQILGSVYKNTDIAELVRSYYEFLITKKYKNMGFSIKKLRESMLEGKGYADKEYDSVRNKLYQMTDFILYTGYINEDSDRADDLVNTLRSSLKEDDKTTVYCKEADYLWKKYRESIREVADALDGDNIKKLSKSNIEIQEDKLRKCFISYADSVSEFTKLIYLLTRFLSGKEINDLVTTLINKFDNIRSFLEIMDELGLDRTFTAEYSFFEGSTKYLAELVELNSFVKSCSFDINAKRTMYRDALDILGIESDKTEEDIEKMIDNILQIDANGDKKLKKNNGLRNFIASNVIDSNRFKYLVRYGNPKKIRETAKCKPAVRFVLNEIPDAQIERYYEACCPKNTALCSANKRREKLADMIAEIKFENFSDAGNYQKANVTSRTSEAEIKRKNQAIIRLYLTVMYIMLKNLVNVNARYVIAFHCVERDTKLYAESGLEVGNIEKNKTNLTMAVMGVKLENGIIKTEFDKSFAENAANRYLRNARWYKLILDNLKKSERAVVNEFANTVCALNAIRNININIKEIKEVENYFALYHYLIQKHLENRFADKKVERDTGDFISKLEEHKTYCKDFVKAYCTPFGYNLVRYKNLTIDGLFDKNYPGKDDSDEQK
Assay: crRNA (strand 1, pre-loaded); Mg2+; 40 mM Tris-HCl pH 7.5, 150 mM NaCl, 6 mM MgCl2, 1 mM DTT, 0.1% Tween-20, 0.2 mg/ml BSA; 25 C; 10 min per concentration, then washed
Details: tags: His6-TwinStrep-SUMO cleaved; N-terminal SNAP kept (SNAP-Surface 488); label: 3' end held by stalled T7 RNA polymerase
Give bare numbers, as −log10 of the molar value.

Past entries and their recorded results:
target 1 MT 5'PFS CCA 3'PFS CAU (mixed) RNA 1: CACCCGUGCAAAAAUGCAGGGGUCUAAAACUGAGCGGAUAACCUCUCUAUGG RNA 2: GGGAAUGGAUCCACAUCUACGAAUUCCCACCAUAGAGAGGUUAUCCGCUCACAUAGAUCGGAAGAGCACACGU: 8.18
target 1 A1G,G17A (mixed) RNA 1: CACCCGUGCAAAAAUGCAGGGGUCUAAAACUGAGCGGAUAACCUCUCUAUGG RNA 2: GGGAAUGGAUCCACAUCUACGAAUUCGUACCAUAAAGAGGUUAUCCGCUCGCCGAGAUCGGAAGAGCACACGU: 7.39

Batch request: pKd for each of the following binders.
1. target 1 insU 3' of 12,insU 3' of 9 (mixed) RNA 1: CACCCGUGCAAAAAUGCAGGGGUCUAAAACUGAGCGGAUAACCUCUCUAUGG RNA 2: GGGAAUGGAUCCACAUCUACGAAUUCGUACCAUAGAGAGGUUUAUUCCGCUCACCGAGAUCGGAAGAGCACACGU
2. target 3 C1G (mixed) RNA 1: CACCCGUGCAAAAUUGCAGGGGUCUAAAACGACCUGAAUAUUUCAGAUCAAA RNA 2: GGGAAUGGAUCCACAUCUACGAAUUCGUUUUUGAUCUGAAAUAUUCAGGUGUGCAGAUCGGAAGAGCACACGU
3. target 2 MT 5'PFS UUU 3'PFS UUU (mixed) RNA 1: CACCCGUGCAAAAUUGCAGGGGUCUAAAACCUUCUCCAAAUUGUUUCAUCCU RNA 2: GGGAAUGGAUCCACAUCUACGAAUUCUUUAGGAUGAAACAAUUUGGAGAAGUUUAGAUCGGAAGAGCACACGU

1. 7.54
2. 7.54
3. 7.70

Batch request: pKd for each of the following binders.
1. target 3 U2G,G14U (mixed) RNA 1: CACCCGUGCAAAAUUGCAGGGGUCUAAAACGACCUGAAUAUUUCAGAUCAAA RNA 2: GGGAAUGGAUCCACAUCUACGAAUUCGUUUUUGAUCUUAAAUAUUCAGGGCUGCAGAUCGGAAGAGCACACGU
2. target 1 C2U,C4U (mixed) RNA 1: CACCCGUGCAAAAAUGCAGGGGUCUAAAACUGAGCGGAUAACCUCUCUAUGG RNA 2: GGGAAUGGAUCCACAUCUACGAAUUCGUACCAUAGAGAGGUUAUCCGUUUACCGAGAUCGGAAGAGCACACGU

[7.13, 7.24]

Reported pKd ( target 1 MT 5'PFS GGG 3'PFS CAU (mixed) RNA 1: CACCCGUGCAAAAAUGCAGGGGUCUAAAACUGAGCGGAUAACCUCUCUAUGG RNA 2: GGGAAUGGAUCCACAUCUACGAAUUCGGGCCAUAGAGAGGUUAUCCGCUCACAUAGAUCGGAAGAGCACACGU ) = 7.49
